- compound: "CC(=O)Nc1ccc(Cl)cc1[N+](=O)[O-]"
  logP: 1.78
- compound: "CCc1cccc(C(C)C)c1NC(C)=O"
  logP: 2.1
- compound: "CC(=O)Nc1ccccc1-c1ccccc1"
  logP: 2.02
- compound: "CC(=O)Nc1cc(C(F)(F)F)c(Cl)cc1F"
  logP: 3.02
- compound: "CC(=O)Nc1cc(C)ccc1C"
  logP: 1.47
- compound: "CCCc1cc(NC(C)=O)ccc1OC"
  logP: 2.72
- compound: "CCc1cccc(CC)c1NC(C)=O"
  logP: 1.85
- compound: "CC(=O)Nc1ccc(Oc2ccccn2)cc1"
  logP: 1.57
- compound: "CCCCc1ccc(NC(C)=O)c(C)c1"
  logP: 3.1
- compound: "CC(=O)Nc1ccc(OC(F)(F)F)cc1"
  logP: 2.62
- compound: "CC(=O)Nc1c(Cl)cccc1Cl"
  logP: 1.32
- compound: "CC(=O)Nc1ccc(C)cc1[N+](=O)[O-]"
  logP: 1.49
- compound: "CC(=O)Nc1ccc(C)c(C)c1"
  logP: 2.1
- compound: "CC(=O)Nc1cc(Cl)ccc1Cl"
  logP: 2.19
- compound: "CCCCc1ccc(NC(C)=O)cc1C"
  logP: 3.64

---

experiment: method code SF-AS, from DOI: 10.1897/1552-8618(1992)11[901:aapohp]2.0.co;2
Classes (logP): band A = under 2, band B = from 2 up to 3, band C = 3 and over

- compound: "C=CCOc1cc(NC(C)=O)c(F)cc1Cl"
  category: "band B"
- compound: "CC(=O)Nc1ccc(Cl)c(Cl)c1Cl"
  category: "band B"
- compound: "CCc1cccc(C)c1NC(C)=O"
  category: "band A"
- compound: "CC(=O)Nc1ccc(Cl)cc1Cl"
  category: "band B"
- compound: "CC(=O)Nc1cc(C)c(C)c(C)c1"
  category: "band B"
- compound: "NC(=O)c1ccccc1I"
  category: "band A"
- compound: "N#Cc1ccccc1C#N"
  category: "band A"
- compound: "CC(=O)Nc1ccc(Cl)cc1F"
  category: "band A"
- compound: "CC(=O)Nc1cc(F)cc(C(F)(F)F)c1Cl"
  category: "band B"
- compound: "CC(=O)Nc1cc(Cl)cc(C(F)(F)F)c1F"
  category: "band C"
- compound: "COc1c(Cl)cccc1NC(C)=O"
  category: "band A"
- compound: "CC(=O)Nc1c(F)c(F)c(F)c(F)c1F"
  category: "band A"
- compound: "CC(=O)Nc1ccc(C)cc1C"
  category: "band A"
- compound: "CC(=O)Nc1cc(C(F)(F)F)cc(C(F)(F)F)c1"
  category: "band C"
- compound: "CC(=O)Nc1cc(C(F)(F)F)ccc1F"
  category: "band B"
- compound: "CC(=O)Nc1ccc(Cl)c(C(F)(F)F)c1"
  category: "band C"
- compound: "CC(=O)Nc1cccc([N+](=O)[O-])c1"
  category: "band A"
- compound: "CC(=O)Nc1cccc(Cl)c1F"
  category: "band A"
- compound: "CC(=O)Nc1cc(C(F)(F)F)cc(Cl)c1Cl"
  category: "band C"
- compound: "Cc1cccc(C)c1C(N)=O"
  category: "band A"
- compound: "CC(C)c1ccccc1C(N)=O"
  category: "band A"
- compound: "COc1cccc([N+](=O)[O-])c1C"
  category: "band B"
- compound: "CC(=O)Nc1cc(C(F)(F)F)cc(C(F)(F)F)c1Br"
  category: "band C"
- compound: "CC(C)c1ccccc1[N+](=O)[O-]"
  category: "band C"
- compound: "CC(=O)Nc1cc(Cl)cc(C(F)(F)F)c1Cl"
  category: "band C"
- compound: "CC(=O)Nc1ccccc1F"
  category: "band A"
- compound: "CC(=O)Nc1c([N+](=O)[O-])cccc1[N+](=O)[O-]"
  category: "band A"
- compound: "CC(=O)Nc1ccccc1Oc1ccccc1"
  category: "band B"
- compound: "CCCCc1ccc(NC(C)=O)c([N+](=O)[O-])c1"
  category: "band C"
